// data source = patent US20150299263A1

Each entry below lists one item and its recorded Intensity (against -ve control) value.
molecular target: T1, Human receptor grade IGFBP-3 (insulin-like growth factor binding protein 3) (human, UniProt P17936 28-291); assay: VN-peptide array, ligand overlay, immunoblot/ECL, TotalLab spot intensity
T1 construct: Bought recombinant protein, overlaid in solution on the VN-peptide array
T1 sequence (P17936 28-291 limits assumed): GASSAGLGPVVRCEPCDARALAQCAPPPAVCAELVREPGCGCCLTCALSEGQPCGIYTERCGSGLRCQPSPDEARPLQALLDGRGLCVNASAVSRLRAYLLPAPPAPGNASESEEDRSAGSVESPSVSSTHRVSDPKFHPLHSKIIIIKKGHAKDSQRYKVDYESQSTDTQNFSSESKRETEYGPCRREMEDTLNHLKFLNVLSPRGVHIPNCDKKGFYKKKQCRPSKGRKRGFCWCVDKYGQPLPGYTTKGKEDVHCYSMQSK
Where no end group is shown, it is not given here.

Example binders with recorded Intensity (against -ve control):
ALALPAHSYSGRERVY (not fully specified (N-terminus); also: free end capped by acetylation, immobilised on cellulose membrane (SPOT synthesis)) [VN-peptide 3B (array grid F6)] :: 1 fold over negative controls
SAGTRQPQFISRDWHG (not fully specified (N-terminus); also: free end capped by acetylation, immobilised on cellulose membrane (SPOT synthesis)) [VN-peptide 6B (array grid G13)] :: 1 fold over negative controls
FEHFAMMQRDSWEDIF (not fully specified (N-terminus); also: free end capped by acetylation, immobilised on cellulose membrane (SPOT synthesis)) [VN-peptide 5A (array grid G5)] :: 1.5 fold over negative controls

Now, please, on to the next binder.
**Query** Consider the binder shown here: DSWEDIFELLFWGRTS (not fully specified (N-terminus); also: free end capped by acetylation, immobilised on cellulose membrane (SPOT synthesis)) [VN-peptide 5D (array grid G8)] What is its recorded Intensity (against -ve control)?
**Result** 2.5 fold over negative controls
